This listing pairs compounds with measured MIC (μM) Gram-positive S. aureus 1005.
System: S. aureus ATCC 29213
Assay type: cell-based, Staphylococcus aureus
Settings: ATCC 29213, 16 h
Method: The antimicrobial activities of the peptides were investigated against the following bacteria: E. faecalis ATCC 29212, S. epidermidis ATCC 12228, S. aureus ATCC 29213, E. coli ATCC 25922, S. typhimurium […] and S. Pullorum […]. The MICs of the peptides were determined using a modified standard microtiter dilution method as described previously[29],[38]. Briefly, the microbial strains were cultured in MHB at 37 °C to reach mid-log phase and then diluted to 0.5-1×10^6 CFU/ml. […]
Residues, ends and D or L forms follow the SMILES beside them.
Reply with just the number (in µM).

// lookup MIC (μM) Gram-positive S. aureus 1005 for NCCCC[C@H](NC(=O)CNC(=O)[C@H](CC(N)=O)NC(=O)[C@H](CCC(=O)O)NC(=O)[C@H](Cc1c[nH]c2ccccc12)NC(=O)[C@H](CCCCN)NC(=O)[C@H](Cc1c[nH]c2ccccc12)NC(=O)[C@H](CCCCN)NC(=O)[C@@H](N)Cc1c[nH]c2ccccc12)C(=O)N[C@@H](Cc1c[nH]c2ccccc12)C(=O)N[C@@H](CCCCN)C(=O)N[C@@H](Cc1c[nH]c2ccccc12)C(=O)N[C@@H](CCCCN)C(=O)N[C@@H](Cc1c[nH]c2ccccc12)C(=O)O [C4] (H-WKWKWENGKWKWKW-OH)
32

For CC(C)C[C@H](NC(=O)[C@H](CCCNC(=N)N)NC(=O)CNC(=O)CNC(=O)[C@@H](N)CCCNC(=N)N)C(=O)N[C@H]1CSSC[C@@H](C(=O)N[C@H](C(=O)NCC(=O)N[C@@H](CCCNC(=N)N)C(N)=O)C(C)C)NC(=O)[C@H](C(C)C)NC(=O)[C@@H]2CSSC[C@H](NC(=O)[C@H](Cc3ccc(O)cc3)NC1=O)C(=O)N[C@@H](CCCNC(=N)N)C(=O)N[C@@H](CCCNC(=N)N)C(=O)N[C@@H](CCCNC(=N)N)C(=O)N[C@@H](Cc1ccccc1)C(=O)N2 [PG-1, reference compound] then?
8

* * *

test system: S. aureus ATCC 29213; format: cell-based, Staphylococcus aureus; details: ATCC 29213, 16 h
Residues, ends and D or L forms follow the SMILES beside them.
MEASUREMENT_TYPE: MIC (μM) Gram-positive S. aureus 1005 (µM)
Reply with just the number (in µM).

// lookup MIC (μM) Gram-positive S. aureus 1005 for NCCCC[C@H](NC(=O)CNC(=O)[C@H](CC(N)=O)NC(=O)[C@H](CCCCN)NC(=O)[C@H](Cc1c[nH]c2ccccc12)NC(=O)[C@H](CCCCN)NC(=O)[C@H](Cc1c[nH]c2ccccc12)NC(=O)[C@H](CCCCN)NC(=O)[C@@H](N)Cc1c[nH]c2ccccc12)C(=O)N[C@@H](Cc1c[nH]c2ccccc12)C(=O)N[C@@H](CCCCN)C(=O)N[C@@H](Cc1c[nH]c2ccccc12)C(=O)N[C@@H](CCCCN)C(=O)N[C@@H](Cc1c[nH]c2ccccc12)C(=O)O [C6] (H-WKWKWKNGKWKWKW-OH)
4

* * *

This listing pairs compounds with measured MIC (μM) Gram-negative S. typhimurium 29213.
system: S. typhimurium C7731; type: cell-based, Salmonella typhimurium; conditions: C7731, 16 h
Residues, ends and D or L forms follow the SMILES beside them.
Reply with just the number (in µM).

{"COMPOUND": "NCCCC[C@H](NC(=O)CNC(=O)[C@H](CC(N)=O)NC(=O)[C@H](CCC(=O)O)NC(=O)[C@H](Cc1c[nH]c2ccccc12)NC(=O)[C@H](CCCCN)NC(=O)[C@H](Cc1c[nH]c2ccccc12)NC(=O)[C@H](CCCCN)NC(=O)[C@@H](N)Cc1c[nH]c2ccccc12)C(=O)N[C@@H](Cc1c[nH]c2ccccc12)C(=O)N[C@@H](CCCCN)C(=O)N[C@@H](Cc1c[nH]c2ccccc12)C(=O)N[C@@H](CCC(N)=O)C(=O)N[C@@H](Cc1c[nH]c2ccccc12)C(=O)O [C3] (H-WKWKWENGKWKWQW-OH)", "SYSTEM_TESTED": "S. typhimurium C7731", "UNITS_LABEL": "µM", "READOUT_VALUE": 64}
{"COMPOUND": "CC(C)C[C@H](NC(=O)[C@H](CCCNC(=N)N)NC(=O)CNC(=O)CNC(=O)[C@@H](N)CCCNC(=N)N)C(=O)N[C@H]1CSSC[C@@H](C(=O)N[C@H](C(=O)NCC(=O)N[C@@H](CCCNC(=N)N)C(N)=O)C(C)C)NC(=O)[C@H](C(C)C)NC(=O)[C@@H]2CSSC[C@H](NC(=O)[C@H](Cc3ccc(O)cc3)NC1=O)C(=O)N[C@@H](CCCNC(=N)N)C(=O)N[C@@H](CCCNC(=N)N)C(=O)N[C@@H](CCCNC(=N)N)C(=O)N[C@@H](Cc1ccccc1)C(=O)N2 [PG-1, reference compound]", "SYSTEM_TESTED": "S. typhimurium C7731", "UNITS_LABEL": "µM", "READOUT_VALUE": 8}

// lookup MIC (μM) Gram-negative S. typhimurium 29213 for NCCCC[C@H](NC(=O)CNC(=O)[C@H](CC(N)=O)NC(=O)[C@H](CCC(=O)O)NC(=O)[C@H](Cc1c[nH]c2ccccc12)NC(=O)[C@H](CCCCN)NC(=O)[C@H](Cc1c[nH]c2ccccc12)NC(=O)[C@H](CCCCN)NC(=O)[C@@H](N)Cc1c[nH]c2ccccc12)C(=O)N[C@@H](Cc1c[nH]c2ccccc12)C(=O)N[C@@H](CCCCN)C(=O)N[C@@H](Cc1c[nH]c2ccccc12)C(=O)N[C@@H](CCCCN)C(=O)N[C@@H](Cc1c[nH]c2ccccc12)C(=O)O [C4] (H-WKWKWENGKWKWKW-OH)
32
